assay-summary: qHTS Screen of the MIPE 4.0 Collection Against Ewings Sarcoma (RDES) (AID 1259252); note: nearly all actives have a fitted effect of over 35% in size
experimental-setup: RD-ES Ewing sarcoma viability, CellTiter-Glo, 48 h; series mostly up to 45.8 µM
Records with an inconclusive call do not appear. The source made the active and inactive calls. Calls come from the whole dose curve; as a rule, active = well fitted inhibition curve with a large enough effect; inconclusive = small, poorly fitted or top-dose-only effect; inactive = no such curve, though single readings can be large or run the other way.
Answer with one of the outcomes Yes = active, No = inactive

Please review the entries below; each comes with its answer.
CNC(=O)c1ccc(Nc2cc(Nc3ccccc3S(=O)(=O)C(C)C)c3cc[nH]c3n2)nc1
Yes
C#CCC(Cc1cnc2nc(N)nc(N)c2n1)c1ccc(C(=O)N[C@@H](CCC(=O)O)C(=O)O)cc1 (stereo not given in full)
Yes
CC[C@@]1([C@@H]2O[C@@H]([C@H]3O[C@@](O)(CO)[C@H](C)C[C@H]3C)C[C@H]2C)CC[C@H]([C@]2(C)CC[C@]3(C[C@H](O)[C@@H](C)[C@@H]([C@@H](C)[C@@H](OC)[C@H](C)C(=O)O)O3)O2)O1
Yes
COc1cc2c(Nc3ccc(Cl)c(Cl)c3F)ncnc2cc1OCC1C[C@@H]2CN(C)C[C@H]2C1
Yes

GET /call?item= c1cc(N[C@@H]2CCNC2)nc(-c2cnc3ccc(-c4cn[nH]c4)cn23)c1 returns the recorded outcome of this test.
Yes

GET /call?item= Nc1nc(=O)n([C@H]2C[C@H](O)[C@@H](CO)O2)cc1F returns the recorded outcome of this test.
Yes

GET /call?item= O=C(O)C[C@H](O)C[C@H](O)C=Cc1c(C2CC2)nc2ccccc2c1-c1ccc(F)cc1 returns the recorded outcome of this test.
Yes

GET /call?item= CC(C)(C)[N+]([O-])=Cc1ccc(S(=O)(=O)O)cc1S(=O)(=O)O returns the recorded outcome of this test.
No

GET /call?item= COc1cc(OC)c(C=CS(=O)(=O)Cc2ccc(OC)c(NCC(=O)O)c2)c(OC)c1 returns the recorded outcome of this test.
Yes

====

System: KB-3-1
assay-summary: Cytotoxic Profiling of Annotated Libraries Using Quantitative High-Throughput Screening (AID 1296008); note: % is set by controls: 0 for no effect and ±100 for the full control effect; nearly all actives have a fitted effect of over 60% in size
experimental-setup: Five cell lines viability, CellTiter-Glo ATP luminescence, 48-72 h; stronger effect = lower value
Results filed as inconclusive are left out.
For each record, write down the corresponding max response.
Numbers only, in %.

Guide cases for max response, answers given:
OC[C@H]1OC(O)C[C@@H](O)[C@H]1O (stereo partly drawn)
2.18
O=C(NNC(=O)c1ccc(CNS(=O)(=O)c2ccc(F)c(Cl)c2)cc1)c1ccccc1
0.725
CC(=O)O[C@H]1C[C@@H]2CC[C@H]3[C@H]4C[C@H]([N+]5(C)CCCCC5)[C@@H](OC(C)=O)[C@@]4(C)CC[C@@H]3[C@@]2(C)C[C@H]1N1CCCCC1
2.79
c1cc(CN2CCCNCCNCCCNCC2)ccc1CN1CCCNCCNCCCNCC1
-8.95
CC(O)(C#Cc1ccc2c(c1)N(c1nc(N)ncc1Cl)CC2)c1nccs1 (stereo not drawn)
-15.7

Dear reader, for each entry below, please note its max response.
1. O=c1ccn([C@@H]2O[C@H](CO)[C@H](O)[C@@H]2F)c(=O)[nH]1
2. C=C[C@@H]1CN2CCC1C[C@H]2[C@H](O)c1ccnc2ccc(OC)cc12 (stereo partly drawn)
3. N[C@H]1CN(c2c(F)cc3c(=O)c(C(=O)O)cn(C4C[C@@H]4F)c3c2Cl)CC12CC2 (stereo partly drawn)
4. COc1cc(C[C@@H](CO)[C@H](CO)Cc2ccc(O)c(OC)c2)ccc1O
5. CC[C@H]1OC(=O)[C@H](C)[C@@H](O[C@H]2C[C@@](C)(OC)[C@@H](O)[C@H](C)O2)[C@H](C)[C@@H](O[C@@H]2O[C@@H](C)C[C@H](N(C)C)[C@@H]2O)[C@](C)(O)C[C@@H](C)C(=O)[C@H](C)[C@@H](O)[C@]1(C)O
6. O=C1NC(O)CCN1[C@@H]1O[C@H](CO)[C@H](O)[C@H]1O (stereo partly drawn)
7. CC[C@H]1OC(=O)[C@H](C)[C@@H](O[C@H]2C[C@@](C)(OC)[C@@H](O)[C@H](C)O2)[C@H](C)[C@@H](O[C@@H]2O[C@H](C)C[C@H](N(C)C)[C@@H]2O)[C@](C)(OC)C[C@@H](C)C(=O)[C@H](C)[C@@H](O)[C@]1(C)O

5.55
-2.72
-14.1
3.84
5.08
-2.55
-5.56

Suppose we examine the molecule C[C@H](NC(=O)[C@@H](O)c1cc(F)cc(F)c1)C(=O)N[C@@H]1C(=O)N(C)c2ccccc2-c2ccccc21 ; what max response value has been reported?
-9.73

====

Tested on: MKL-2
assay-summary: qHTS assay to identify novel small-molecules to repurpose for Merkel cell carcinoma treatment (AID 1296009); note: nearly all actives have a fitted effect of over 60% in size
experimental-setup: MCC and control cell lines, CellTiter-Glo viability, 72 h; series mostly up to 46 µM
Inconclusive results are not listed. Activity calls are given as the source filed them. The call rests on the fitted dose curve; in most records, active means well fitted inhibition curve with a large enough effect; inconclusive means small, poorly fitted or top-dose-only effect; inactive means flat fitted curve, though single readings scatter.
Answer with one of the outcomes 1 = active, 0 = inactive

Please review the entries below; each comes with its answer.
c1cc(CN2CCCNCCNCCCNCC2)ccc1CN1CCCNCCNCCCNCC1
0
c1cc(N[C@@H]2CCNC2)nc(-c2cnc3ccc(-c4cn[nH]c4)cn23)c1
1

GET /call?item= CC(C)NC[C@@H](C(=O)N1CCN(c2ncnc3c2[C@H](C)C[C@H]3O)CC1)c1ccc(Cl)cc1 returns the recorded outcome of this test.
1

====

assay-summary: Quantitative High-Throughput drug screen in 47 multiple myeloma cell lines against the NCATS MIPE library collection: ARP1_JJKsccF8 cell viability assay (AID 1918928; note: potency is the fitted concentration of half-maximal effect; nearly all actives have a fitted effect of over 40% in size)
experimental-setup: ARP1 myeloma cells viability, CellTiter-Glo ATP, 48 h; series mostly up to 45.8 µM
Excerpt: PI: Beverly A. Mock Ph.D. Laboratory of Cancer Biology and Genetics, Center for Cancer Research, National Cancer Institute, National Institute of Health, Bethesda, Maryland […] 5; Detector; 425V; Luminescence; Viewlux PerkinElmer. […] 1. […] Briefly, the corresponding myeloma cell lines were screened in 1,536-well plates with 500 cells, 5-uL per well for inhibition of cell viability (assessed by measuring ATP levels with CellTiterGlo). […]
Inconclusive results are not listed. Active and inactive are the calls of the source. The call rests on the fitted dose curve; in most records, active means well fitted cell-killing curve with a large enough effect; inconclusive means small, poorly fitted or top-dose-only effect, or effect the other way; inactive means no such curve, though single readings can be large or run the other way.
measurement-kind: Potency

Guide cases for Potency, answers given:
O=C1NC(=O)C(=Cc2ccc3nccc(-c4ccncc4)c3c2)S1
0.0833 µM (active)
CCNC(=O)c1cc2c(-c3cc(OCCN4CCCC4)c(Cl)cc3Cl)nc(N)nc2s1
1.66 µM (active)
C=C1C(=O)O[C@H]2[C@@H]1CCC(C)=CCC[C@@]1(C)O[C@@H]21
4.69 µM (active)
COc1cc([C@@H]2c3cc4c(cc3[C@@H](O[C@@H]3O[C@@H]5CO[C@@H](c6cccs6)O[C@@H]5[C@H](O)[C@@H]3O)[C@H]3COC(=O)[C@H]23)OCO4)cc(OC)c1O
0.209 µM (active)
NC(=O)N1CCC(CC(=O)N2CCC([C@H]3c4ncc(Br)cc4CCc4cc(Cl)cc(Br)c43)CC2)CC1
13.2 µM (active)
O=C(NC1CC1)c1cccc(-c2ccc3c(NC(=O)C4CC4)n[nH]c3c2)c1
14.8 µM (active)
CS(=O)(=O)N1CCc2c(-c3cnc(N)nc3)nc(N3CCOCC3)nc21
0.0418 µM (active)

// switching to the query molecule
Suppose we examine the molecule CC(C=CC1=C(C)CCCC1(C)C)=CC=CC(C)=CC(=O)Nc1ccc(O)cc1 ; what Potency value has been reported?
19.1 µM (active)

====

assay-summary: Quantitative High-Throughput drug screen in 47 multiple myeloma cell lines against the NCATS MIPE library collection: FR4_PLB cell viability assay (AID 1918924; note: nearly all actives have a fitted effect of over 35% in size)
experimental-setup: FR4_PLB myeloma cells viability, CellTiter-Glo ATP, 48 h; series mostly up to 45.8 µM
Records with an inconclusive call do not appear. Calls of active or inactive are those of the source. Calls come from the whole dose curve; as a rule, active = well fitted cell-killing curve with a large enough effect; inconclusive = small, poorly fitted or top-dose-only effect, or effect the other way; inactive = no such curve, though single readings can be large or run the other way. Residues, ends and D or L forms follow the SMILES beside them. *: point of attachment. Cbz = O=C(OCc1ccccc1)*
Answer with one of the outcomes active, inactive

Please review the entries below; each comes with its answer.
CNC(=O)c1cccc(-c2ccc3c(N4CCOC[C@H]4C)nc(N4CCOC[C@H]4C)nc3n2)c1
active
CN(C)CC(=O)N1CCC(c2ccc(NC(=O)c3ncc(C#N)[nH]3)c(C3=CCCCC3)c2)CC1
inactive

GET /call?item= CC(C)C[C@@H](C=O)NC(=O)[C@H](CC(C)C)NC(=O)[C@H](CC(C)C)NC(=O)OCc1ccccc1 (Cbz-Leu-Leu-Leu-aldehyde) returns the recorded outcome of this test.
active

====

assay-summary: qHTS profiling of the MIPE4 collection as inhibitors of Plasmodium falciparum (DD2) proliferation (Rep 2) (AID 743346)
experimental-setup: P. falciparum Dd2 in erythrocytes, SYBR Green DNA, 72 h; at 28.5 µM (top of the series) unless noted
measurement-kind: parasite growth, % of control (lower = inhibition) (%)
Give bare numbers, in %.

Guide cases for parasite growth, % of control (lower = inhibition), answers given:
CN[C@H]1[C@@H](O)[C@@H]2O[C@@H]3O[C@H](C)CC(=O)[C@]3(O)O[C@@H]2[C@@H](NC)[C@H]1O
19.2
CC(O)(C#Cc1ccc2c(c1)N(c1nc(N)ncc1Cl)CC2)c1nccs1 (stereo unspecified)
22.8
CS[C@H]1SC[C@@H]2C(=O)N(C)[C@H](C(C)C)C(=O)OC[C@H](NC(=O)c3cnc4ccccc4n3)C(=O)N[C@H](C)C(=O)N(C)[C@@H]1C(=O)N(C)[C@H](C(C)C)C(=O)OC[C@H](NC(=O)c1cnc3ccccc3n1)C(=O)N[C@H](C)C(=O)N2C
7.64
COc1cc(C)c(Sc2cnc(NC(=O)c3ccc(CNC(C)C(C)(C)C)cc3)s2)cc1C(=O)N1CCN(C(C)=O)CC1 (stereo unspecified)
17.2
CN(C)c1ccc(C(=O)NCCCCCCC(=O)NO)cc1
8.85

Dear reader, for each entry below, please note its parasite growth, % of control (lower = inhibition).
1. C[C@@H]1[C@H](C)CC[C@]2(C(=O)O)CC[C@]3(C)C(=CC[C@@H]4[C@@]5(C)C[C@@H](O)[C@H](O)[C@@](C)(CO)[C@H]5CC[C@]43C)[C@@H]12
2. Cn1c(Nc2ccc(C(F)(F)F)cc2)nc2cc(Oc3ccnc(-c4ncc(C(F)(F)F)[nH]4)c3)ccc21

[52.5, 19.4]
